- Study System: T1, human cholecystokinin-1 receptor (human), P32238
- T1 chain: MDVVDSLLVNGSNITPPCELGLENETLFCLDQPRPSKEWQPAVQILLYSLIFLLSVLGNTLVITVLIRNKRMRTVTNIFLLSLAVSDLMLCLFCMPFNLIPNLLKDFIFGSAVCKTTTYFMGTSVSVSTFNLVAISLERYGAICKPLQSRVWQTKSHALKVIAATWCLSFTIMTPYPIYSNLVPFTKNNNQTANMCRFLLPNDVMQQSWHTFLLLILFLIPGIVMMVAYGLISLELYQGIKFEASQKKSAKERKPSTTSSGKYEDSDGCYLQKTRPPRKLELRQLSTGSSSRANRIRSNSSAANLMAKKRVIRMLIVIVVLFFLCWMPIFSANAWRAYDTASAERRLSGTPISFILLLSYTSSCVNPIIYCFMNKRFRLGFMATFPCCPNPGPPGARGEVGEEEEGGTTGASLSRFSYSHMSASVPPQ
- Test Method Notes: SPA competition vs [125I]-CCK-8s, membranes
Starred links: 1 amine or outer side, 2 acyl side, 3 side chain; linkers in the order of their positions; H or OH if unused. Non-standard residues stand in square brackets, D forms with d. No end group written: not given here. *: point of attachment. sY = N[C@@H](Cc1ccc(OS(=O)(=O)O)cc1)C(=O)O; C18 diacid = O=C(O)CCCCCCCCCCCCCCCCC(=O)*; γGlu = O=C(O)[C@H](CCC(=O)[*:2])N[*:1]; NMeF = CN[C@@H](Cc1ccccc1)C(=O)O; AEEA = NCCOCCOCC(=O)O
Classify: Yes when IC50 is strictly less than 0.1 nM; No when IC50 is not.

Binder	Label
D[sY]LGWQ[DMeAsp][NMeF]-NH2 [Asp-sTyr-Leu-Gly-Trp-Gln-DMeAsp-MePhe-amide]	Yes
{C18 diacid-γGlu-AEEA-AEEA}-D[sY]LGWA[DMeAsp][NMeF]-NH2	No
D[sY]LGWA[DMeAsp][NMeF]-NH2 [Asp-sTyr-Leu-Gly-Trp-Ala-DMeAsp-MePhe-amide]	No
{C18 diacid-γGlu-AEEA-AEEA}-D[sY]LGWV[DMeAsp][NMeF]-NH2	No
{C18 diacid-γGlu-AEEA-AEEA}-D[sY]LGWP[DMeAsp][NMeF]-NH2	No

With those in mind, consider the next binder.
Query block: hey, is IC50 for D[sY]LGWP[DMeAsp][NMeF]-NH2 [Asp-sTyr-Leu-Gly-Trp-Pro-DMeAsp-MePhe-amide] lower than 0.1 nM or not?
Result block: No
